The measured values listed here are drawn from ChEMBL document CHEMBL5303304.

# System: U2OS
# Test: Incucyte cell viability with U2OS; further: unitless GR value; below 1 slowed growth and below 0 cell loss
# Format: toxicity, cell-based
# Conditions used: human, 0 h, 10 µM, compound concentration 10 uM, replicate number 2
For each entry below, report its Growth Rate value.
// no unit string in output, number only

Query :: Which Growth Rate is reported for this molecule? COc1cc2c(NC3CCN(C(C)C)CC3)nc(C3CCCCC3)nc2cc1OCCCN1CCCC1
Result :: 0.19

Query :: Which Growth Rate is reported for this molecule? CCO[C@H](COc1ccc(C(F)(F)F)cc1)CSc1ccc(OCC(=O)[O-])c(C)c1.[Na+]
Result :: 0.56

Query :: Which Growth Rate is reported for this molecule? COc1cc(C(C)C)c(Oc2cnc(NC(CO)CO)nc2N)cc1I
Result :: -0.32

Query :: Which Growth Rate is reported for this molecule? Cc1cc(Nc2cc(N)ncn2)c(=O)n2c1C(=O)NC21CCCCC1 [TOMIVOSERTIB]
Result :: 0.6

Query :: Which Growth Rate is reported for this molecule? Nc1nc2cc(-c3cc(Cl)ccc3Oc3cc(F)c(S(=O)(=O)Nc4ncns4)cc3F)ccc2[nH]1
Result :: 0.2

====

# Test system: U2OS
# Test: Incucyte cell viability with U2OS; further: unitless GR value; below 1 slowed growth and below 0 cell loss
# Format: toxicity, cell-based
# Conditions used: human, 24 h, 10 µM, compound concentration 10 uM, replicate number 1
Quick rule: Growth Rate of at least 0.2 means 1 (yes), below that means 0 (no).

Query :: Determine whether this molecule has Growth Rate no lower than 0.2: N[C@@H]1CCCC[C@H]1Oc1ccc2ncc(-c3cc4ccccc4o3)n2n1
Result :: 0 (no)

Query :: Determine whether this molecule has Growth Rate no lower than 0.2: Nc1ccc(S(=O)(=O)Nc2ccnn2-c2ccccc2)cc1 [SULFAPHENAZOLE]
Result :: 1 (yes)

Query :: Determine whether this molecule has Growth Rate no lower than 0.2: COc1cnccc1Nc1nc(-c2nn(Cc3c(F)cc(OCCO)cc3F)c3ccccc23)ncc1OC
Result :: 0 (no)

Query :: Determine whether this molecule has Growth Rate no lower than 0.2: N#Cc1ccnc(Nc2cc(C3CCN(C4COC4)CC3)cc(N3CCC(F)(F)C3)n2)c1
Result :: 0 (no)

Query :: Determine whether this molecule has Growth Rate no lower than 0.2: Cc1cc(C)cc(C(=O)NOCCCCCC(=O)NO)c1
Result :: 1 (yes)

Query :: Determine whether this molecule has Growth Rate no lower than 0.2: Cl.O=C(NCCN1CCC2(CC1)C(=O)NCN2c1cccc(F)c1)c1ccc2ccccc2c1
Result :: 0 (no)

Query :: Determine whether this molecule has Growth Rate no lower than 0.2: CC#CCC(C)[C@H](O)/C=C/[C@@H]1[C@H]2C/C(=C/CCCC(=O)O)C[C@H]2C[C@H]1O (stereo not given in full) [ILOPROST]
Result :: 1 (yes)

Query :: Determine whether this molecule has Growth Rate no lower than 0.2: O=C(O)[C@]1(Cc2cccc(Nc3nccs3)n2)CC[C@@H](Oc2cccc(Cl)c2F)CC1 [MK-5108]
Result :: 1 (yes)

Query :: Determine whether this molecule has Growth Rate no lower than 0.2: CN1CCC(C#N)(NC(=O)[C@@H](NC(=O)N2CCOCC2)C(C)(C)C)CC1
Result :: 1 (yes)

Query :: Determine whether this molecule has Growth Rate no lower than 0.2: CCOC(=O)c1cncn1[C@H](C)c1ccccc1 [ETOMIDATE]
Result :: 1 (yes)
